Measured yeast surface expression, listed per entry for reference.
B1: scFv; the commonest letter at each place (parent)
chain 1: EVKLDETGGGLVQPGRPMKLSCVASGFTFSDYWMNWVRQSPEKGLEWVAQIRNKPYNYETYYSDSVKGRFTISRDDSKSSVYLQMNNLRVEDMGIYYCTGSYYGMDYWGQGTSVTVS
chain 2: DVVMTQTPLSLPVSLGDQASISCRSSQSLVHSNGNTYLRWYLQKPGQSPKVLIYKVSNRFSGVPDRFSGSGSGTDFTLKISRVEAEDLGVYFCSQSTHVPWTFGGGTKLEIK

Variants of: B1
assay-details: yeast surface expression (ratio to wild type); higher = more expressed
run-conditions: format: scFv 4-4-20, heavy + light
Enter the number alone.

Example variants with recorded yeast surface expression:
chain 1 Y102V M105N; 1.01
chain 1 Y102N G104Q; 0.924
chain 1 G100D S101I; 0.0999
chain 1 S101I G104Q; 0.397
chain 1 M105F W108Y; 0.656

Which yeast surface expression value belongs to chain 1 W33H M34V V37L ?
0.434

Reference source: the FLAb antibody collection (doi:10.7554/elife.23156)
